// Ki collected for FKBP12 (Homo sapiens (Human), UniProt P62942)
Test readout: Ki (nM)

Compound	Value
CO[C@H]1C[C@@H]2CC[C@@H](C)[C@@](O)(O2)C(=O)C(=O)N2CCCC[C@H]2C(=O)OC([C@H](C)Cc2ccc(CO)s2)C/C=C(\C)[C@@H](O)CC(=O)[C@H](C)C[C@H](C)/C=C/C=C/C=C/1C (stereo partly shown)	9.5

[P] CO[C@H]1C[C@@H]2CC[C@@H](C)[C@@](O)(O2)C(=O)C(=O)N2CCCC[C@H]2C(=O)OC([C@H](C)C[C@@H]2CC[C@@H](O)[C@H](O)C2)C/C=C(\C)[C@@H](O)CC(=O)[C@H](C)C[C@H](C)/C=C/C=C/C=C/1C (stereo partly shown)
[Q] CC/C1=C\CC(/C(C)=C/C(C)C(C)O)OC(=O)C2CCCCN2C(=O)C(=O)C2(O)OC(CCC2C)CC(O)C(C)C(O)CC(O)CC(O)/C(C)=C/C(C)CC(C)C1O (stereo not shown)
[R] CO[C@H]1C[C@@H]2CC[C@@H](C)[C@](O)(CC(=O)N3CCCC[C@H]3C(=O)OC([C@H](C)C[C@H]3CC[C@H](O)CC3)CC(=O)[C@H](C)C[C@H](C)/C=C/C=C/C=C/1C)O2 (stereo partly shown)
q: Please rank these compounds by Ki in descending order. Show the ranking through the labels, in the order asked for.
a: R, Q, P
(R: 370 nM, Q: 10 nM, P: 4.2 nM)
